Reference source: ChEMBL document CHEMBL5365407

Exercise: for every item that follows, state its recorded IC50.
System: PC-3
Experimental details: Antiproliferative activity against human PC-3 cells measured after 72 hrs by MTT assay
Format: functional, cell-based
Run parameters: PC-3, 72 h
Quick reminder: number only, in µM, skip the unit.

Recorded IC50 (compound N#Cc1c(Nc2ccc(F)cc2)nc(SCC(=O)N2CCN(CCOc3no[n+]([O-])c3S(=O)(=O)c3ccccc3)CC2)nc1-c1ccccc1 ): 1.39

Recorded IC50 (compound CCCc1ccc(Nc2nc(SCC(=O)N3CCN(CCOc4no[n+]([O-])c4S(=O)(=O)c4ccccc4)CC3)nc(-c3ccccc3)c2C#N)cc1 ): 1.16

Recorded IC50 (compound N#Cc1c(Nc2ccccc2)nc(SCC(=O)NCCOc2no[n+]([O-])c2S(=O)(=O)c2ccccc2)nc1-c1ccccc1 ): 2.37

Recorded IC50 (compound N#Cc1c(Nc2ccc(Cl)cc2)nc(SCC(=O)N2CCN(CCOc3no[n+]([O-])c3S(=O)(=O)c3ccccc3)CC2)nc1-c1ccccc1 ): 2.08

Recorded IC50 (compound COc1cccc(Nc2nc(SCC(=O)N3CCN(CCOc4no[n+]([O-])c4S(=O)(=O)c4ccccc4)CC3)nc(-c3ccccc3)c2C#N)c1 ): 3.38

Recorded IC50 (compound N#Cc1c(Nc2ccc(C(F)(F)F)cc2)nc(SCC(=O)N2CCN(CCOc3no[n+]([O-])c3S(=O)(=O)c3ccccc3)CC2)nc1-c1ccccc1 ): 3.52

Recorded IC50 (compound CCc1cccc(Nc2nc(SCC(=O)N3CCN(CCOc4no[n+]([O-])c4S(=O)(=O)c4ccccc4)CC3)nc(-c3ccccc3)c2C#N)c1 ): 2.4

* * *

Tested on: PC-3
Experimental details: Antiproliferative activity against human PC-3 cells measured after 72 hrs by MTT assay
Assay type: functional, cell-based
Run parameters: PC-3, 72 h
Doc: threshold 2000 nM (exclusive). Items with IC50 beneath it return T; others return F.

Ask: Quick check: does N#Cc1c(Nc2cccc(C(F)(F)F)c2)nc(SCC(=O)N2CCN(CCOc3no[n+]([O-])c3S(=O)(=O)c3ccccc3)CC2)nc1-c1ccccc1 have IC50 under 2000 nM?
Result: F

Ask: Quick check: does CCOc1ccc(Nc2nc(SCC(=O)N3CCN(CCOc4no[n+]([O-])c4S(=O)(=O)c4ccccc4)CC3)nc(-c3ccccc3)c2C#N)cc1 have IC50 under 2000 nM?
Result: F

Ask: Quick check: does CN1CCN(c2nc(SCC(=O)N3CCN(CCOc4no[n+]([O-])c4S(=O)(=O)c4ccccc4)CC3)nc(-c3ccccc3)c2C#N)CC1 have IC50 under 2000 nM?
Result: T

Ask: Quick check: does N#Cc1c(Nc2ccccc2)nc(SCC(=O)OCCCCOc2no[n+]([O-])c2S(=O)(=O)c2ccccc2)nc1-c1ccccc1 have IC50 under 2000 nM?
Result: F

Ask: Quick check: does COc1ccccc1Nc1nc(SCC(=O)N2CCN(CCOc3no[n+]([O-])c3S(=O)(=O)c3ccccc3)CC2)nc(-c2ccccc2)c1C#N have IC50 under 2000 nM?
Result: T

Ask: Quick check: does N#Cc1c(Nc2ccccc2)nc(SCC(=O)N2CCC(Oc3no[n+]([O-])c3S(=O)(=O)c3ccccc3)C2)nc1-c1ccccc1 (configuration not stated) have IC50 under 2000 nM?
Result: F

Ask: Quick check: does Cc1ccccc1Nc1nc(SCC(=O)N2CCN(CCOc3no[n+]([O-])c3S(=O)(=O)c3ccccc3)CC2)nc(-c2ccccc2)c1C#N have IC50 under 2000 nM?
Result: F
